Target: T1, PmrA N176A (Klebsiella pneumoniae, UniProt W9BNR5 1-223, N176A)
T1 sequence: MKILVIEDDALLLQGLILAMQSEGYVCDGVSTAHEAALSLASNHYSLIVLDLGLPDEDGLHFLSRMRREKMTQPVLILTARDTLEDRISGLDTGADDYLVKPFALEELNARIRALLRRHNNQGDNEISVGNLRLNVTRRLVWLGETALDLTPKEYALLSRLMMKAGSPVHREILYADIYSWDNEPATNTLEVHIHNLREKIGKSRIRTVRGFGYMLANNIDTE
Assay: fluorescence polarization; BeF3-, Mg2+ (activation); FP: 10 mM sodium phosphate, 15 mM NaCl, pH 7.0, 298 K, 6 nM FAM-DNA; proteins activated with 5.3 mM BeCl2, 35 mM NaF, 7 mM MgCl2. NMR: 20 mM Tris-HCl, 100 mM Na
MEASURED_PARAMETER: Kd (nM)
// note: answer is a bare numeric in nM

### Prompt Given the entry 25-bp FAM-labelled DNA (FP) (dsDNA) DNA 1: ATTTCTTAATATTATCCTAAGCAAG DNA 2: TTGCTTAGGATAATATTAAGAAATC , report its measured Kd.
### Response 365
